Recorded melting point for the following compounds

Completed entries (count: 4):
compound=CCOC(=O)NNc1nc2ccccc2n2cnc(C(=O)OCC)c12 reported="126 to 128 °C"
compound="CCCCCC(O)CCn1[nH]c(=O)n(C)c1=O (stereo unspecified)" reported="85 to 88 °C"
compound=CC(=O)NC[C@H]1CN(c2ccc(N3CCC(=CC#N)CC3)c(F)c2)C(=O)O1 reported="159 to 160 °C"
compound="O=C1c2c(cc(O)c(Cl)c2Cl)CC1C1CCCC1 (stereo unspecified)" reported="222 to 225 °C"

Query: Request the reported melting point associated with `Cc1c(C(=O)O)cnn1-c1c(Cl)cc(Cl)cc1Cl`
Response: 184 to 186 °C

Query: Request the reported melting point associated with CCCCCCC1CCC(=O)N1c1ccc(Cl)c(NC2=NN(c3c(Cl)cc(Cl)cc3Cl)C(=O)C2)c1 (stereo unspecified)
Response: 224 to 227 °C

Query: Request the reported melting point associated with `CCCCc1nc2c(N)nc3ccccc3c2n1CCCCNS(=O)(=O)Cc1ccccc1`
Response: 197 to 200 °C

Query: Request the reported melting point associated with `CCC(CC)Oc1cc(C)nc(Nc2c(C)cc(C)cc2C)c1NC(=O)CCl`
Response: 79 to 82 °C

Query: Request the reported melting point associated with `c1cnc2c(OCCn3ccc4ccc5c(c43)CCNCC5)cccc2c1`
Response: 129 to 132 °C

Query: Request the reported melting point associated with `N#Cc1cc(N)ccc1N1CCN(CCO)CC1`
Response: 137 to 138 °C

Query: Request the reported melting point associated with `CCOC(=O)c1cc(OC)c(Cc2cnc(N)nc2N)c(OC)c1`
Response: 201 to 202 °C

Query: Request the reported melting point associated with `COc1ccc(SCc2c(C(C)C)nc(C(C)C)c(CO)c2-c2ccc(F)cc2)cc1`
Response: 92 to 93 °C

Query: Request the reported melting point associated with `CC(C)OC(=O)c1cc(F)c(F)c(-c2ccc(Cl)cc2)n1`
Response: 73 to 74 °C

Query: Request the reported melting point associated with O=C1CC(c2ccccc2)c2cccc(O)c21 (stereo unspecified)
Response: 80 °C

Query: Request the reported melting point associated with CC(=O)SCC(C)C(=O)N1C(C(=O)O)CC2CCCCC21 (stereo unspecified)
Response: 152 to 154 °C

Query: Request the reported melting point associated with CN(C(=O)CCS(C)=O)c1nnc(-c2cccnc2)s1 (stereo unspecified)
Response: 138 to 140 °C

Query: Request the reported melting point associated with `CC(C)(C)OC(=O)N1CCN(c2cccc3c2ccn3S(=O)(=O)c2ccccc2)CC1`
Response: 143 to 144 °C

Query: Request the reported melting point associated with `CC(=S)NC[C@H]1CN(c2ccc3c(c2)OC[C@@H](C)N3)C(=O)O1`
Response: 74 to 77 °C
